# test target: UniProtKB P11388
# Sequence (P11388 whole entry): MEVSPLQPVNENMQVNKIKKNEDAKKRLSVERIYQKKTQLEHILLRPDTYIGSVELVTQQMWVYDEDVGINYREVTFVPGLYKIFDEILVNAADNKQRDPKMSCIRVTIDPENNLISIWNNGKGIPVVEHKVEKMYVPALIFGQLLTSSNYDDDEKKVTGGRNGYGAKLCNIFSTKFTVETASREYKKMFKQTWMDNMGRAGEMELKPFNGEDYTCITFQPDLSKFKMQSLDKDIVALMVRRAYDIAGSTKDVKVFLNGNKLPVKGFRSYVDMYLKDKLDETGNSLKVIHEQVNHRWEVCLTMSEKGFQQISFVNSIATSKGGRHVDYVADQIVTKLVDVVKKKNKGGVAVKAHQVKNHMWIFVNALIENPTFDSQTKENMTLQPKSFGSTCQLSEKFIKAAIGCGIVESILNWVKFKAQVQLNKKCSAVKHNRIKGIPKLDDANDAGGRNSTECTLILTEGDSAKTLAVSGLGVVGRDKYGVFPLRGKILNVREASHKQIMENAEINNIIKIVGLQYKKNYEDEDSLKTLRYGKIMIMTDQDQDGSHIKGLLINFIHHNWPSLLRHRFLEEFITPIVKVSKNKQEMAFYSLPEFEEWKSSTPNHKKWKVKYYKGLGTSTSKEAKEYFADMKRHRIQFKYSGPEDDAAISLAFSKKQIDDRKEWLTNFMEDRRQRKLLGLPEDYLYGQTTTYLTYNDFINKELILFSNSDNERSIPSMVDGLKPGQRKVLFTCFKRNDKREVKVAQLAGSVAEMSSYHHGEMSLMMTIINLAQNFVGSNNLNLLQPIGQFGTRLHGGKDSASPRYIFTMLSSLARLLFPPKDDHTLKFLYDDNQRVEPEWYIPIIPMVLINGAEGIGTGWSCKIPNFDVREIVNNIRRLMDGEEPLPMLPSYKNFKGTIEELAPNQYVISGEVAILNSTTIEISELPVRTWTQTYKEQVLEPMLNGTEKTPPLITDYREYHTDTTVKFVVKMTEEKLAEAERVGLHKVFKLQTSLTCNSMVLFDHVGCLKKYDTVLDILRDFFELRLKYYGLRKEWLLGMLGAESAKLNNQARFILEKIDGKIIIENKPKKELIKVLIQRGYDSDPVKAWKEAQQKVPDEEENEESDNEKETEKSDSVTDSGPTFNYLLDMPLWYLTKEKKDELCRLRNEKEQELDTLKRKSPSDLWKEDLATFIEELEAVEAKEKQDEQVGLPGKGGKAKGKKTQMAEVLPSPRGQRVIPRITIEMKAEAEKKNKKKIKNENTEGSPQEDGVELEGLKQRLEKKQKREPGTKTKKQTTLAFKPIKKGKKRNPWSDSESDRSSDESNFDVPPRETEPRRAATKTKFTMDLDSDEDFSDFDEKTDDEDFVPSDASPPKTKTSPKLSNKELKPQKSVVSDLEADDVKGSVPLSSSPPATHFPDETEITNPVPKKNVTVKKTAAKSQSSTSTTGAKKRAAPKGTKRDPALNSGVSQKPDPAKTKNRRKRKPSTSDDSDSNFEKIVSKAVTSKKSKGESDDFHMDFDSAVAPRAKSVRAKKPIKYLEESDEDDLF
# protocol text: Inhibition of human recombinant DNA topoisomerse 2 alpha using pBR322 as substrate assessed as inhibition of conversion of supercoiled pBR322 to relaxed form at 20 uM after 30 mins by ethidium bromide staining-based electrophoresis analysis
Field: inhibition. Provide a value for each of the molecules that follow.
Field format: number, assumed %, no unit text.

input: So what does the record say about inhibition for Oc1cccc(-c2cc(-c3ccsc3)c3c(n2)-c2ccccc2C3)c1 ?
output: 37

input: So what does the record say about inhibition for Oc1cccc(-c2cc(-c3cccs3)c3c(n2)-c2ccccc2C3)c1 ?
output: 32

input: So what does the record say about inhibition for Oc1cccc(-c2cc(-c3ccoc3)c3c(n2)-c2ccccc2C3)c1 ?
output: 19.3

input: So what does the record say about inhibition for c1ccc(-c2cc(-c3ccoc3)c3c(n2)-c2ccccc2C3)cc1 ?
output: 15.1

###

# test target: DNA topoisomerase 2-alpha (Homo sapiens)
# protocol text: Inhibition of human recombinant DNA topoisomerse 2 alpha using pBR322 as substrate assessed as inhibition of conversion of supercoiled pBR322 to relaxed form at 100 uM after 30 mins by ethidium bromide staining-based electrophoresis analysis
Quick rule: inhibition of at least 40% means Met, below that means Not met.

input: Is the recorded value of inhibition equal to or greater than 40% for this compound? Oc1cccc(-c2cc(-c3cccnc3)c3c(n2)-c2ccccc2C3)c1
output: Met

input: Is the recorded value of inhibition equal to or greater than 40% for this compound? c1ccc(-c2cc(-c3ccoc3)c3c(n2)-c2ccccc2C3)cc1
output: Not met

input: Is the recorded value of inhibition equal to or greater than 40% for this compound? Oc1ccccc1-c1cc(-c2ccoc2)c2c(n1)-c1ccccc1C2
output: Met

input: Is the recorded value of inhibition equal to or greater than 40% for this compound? Oc1ccccc1-c1cc(-c2ccncc2)c2c(n1)-c1ccccc1C2
output: Not met

input: Is the recorded value of inhibition equal to or greater than 40% for this compound? Oc1ccccc1-c1cc(-c2ccsc2)c2c(n1)-c1ccccc1C2
output: Met

input: Is the recorded value of inhibition equal to or greater than 40% for this compound? Oc1ccc(-c2cc(-c3cccnc3)c3c(n2)-c2ccccc2C3)cc1
output: Not met

input: Is the recorded value of inhibition equal to or greater than 40% for this compound? Oc1ccc(-c2cc(-c3ccsc3)c3c(n2)-c2ccccc2C3)cc1
output: Not met

input: Is the recorded value of inhibition equal to or greater than 40% for this compound? c1ccc(-c2cc(-c3ccccn3)c3c(n2)-c2ccccc2C3)cc1
output: Not met

input: Is the recorded value of inhibition equal to or greater than 40% for this compound? c1ccc(-c2cc(-c3ccco3)c3c(n2)-c2ccccc2C3)cc1
output: Met

input: Is the recorded value of inhibition equal to or greater than 40% for this compound? Oc1ccc(-c2cc(-c3ccncc3)c3c(n2)-c2ccccc2C3)cc1
output: Not met

###

# test target: UniProtKB P11387
# Sequence (P11387 whole entry): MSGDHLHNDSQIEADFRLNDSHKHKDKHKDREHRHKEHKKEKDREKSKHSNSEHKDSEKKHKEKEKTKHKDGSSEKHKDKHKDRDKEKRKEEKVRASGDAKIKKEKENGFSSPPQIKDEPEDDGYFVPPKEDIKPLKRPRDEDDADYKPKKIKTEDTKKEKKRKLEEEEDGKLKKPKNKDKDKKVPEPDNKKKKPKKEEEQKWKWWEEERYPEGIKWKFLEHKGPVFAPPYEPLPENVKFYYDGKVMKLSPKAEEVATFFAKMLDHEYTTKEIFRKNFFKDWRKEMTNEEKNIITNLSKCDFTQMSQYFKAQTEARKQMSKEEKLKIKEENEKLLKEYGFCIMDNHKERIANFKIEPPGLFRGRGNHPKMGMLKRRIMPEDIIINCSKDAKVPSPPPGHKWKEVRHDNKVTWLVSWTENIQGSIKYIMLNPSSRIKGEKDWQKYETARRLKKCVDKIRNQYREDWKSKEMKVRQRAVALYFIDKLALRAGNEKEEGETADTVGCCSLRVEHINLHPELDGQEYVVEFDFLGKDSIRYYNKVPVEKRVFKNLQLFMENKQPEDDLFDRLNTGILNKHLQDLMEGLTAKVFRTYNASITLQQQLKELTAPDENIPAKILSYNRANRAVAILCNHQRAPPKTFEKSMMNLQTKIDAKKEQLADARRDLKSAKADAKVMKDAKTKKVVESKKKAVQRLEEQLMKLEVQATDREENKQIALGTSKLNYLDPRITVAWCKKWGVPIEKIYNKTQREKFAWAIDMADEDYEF
# protocol text: Inhibition of human recombinant DNA topoisomerse 1 using pBR322 as substrate assessed as inhibition of conversion of supercoiled pBR322 to relaxed form at 20 uM after 30 mins by ethidium bromide staining-based electrophoresis analysis
Field: inhibition. Provide a value for each of the compounds that follow.
Remember to quote the unit after the number.

input: Give UniProtKB P11387 inhibition for Oc1ccccc1-c1cc(-c2cccs2)c2c(n1)-c1ccccc1C2
output: 0%

input: Give UniProtKB P11387 inhibition for Oc1cccc(-c2cc(-c3ccsc3)c3c(n2)-c2ccccc2C3)c1
output: 0%

input: Give UniProtKB P11387 inhibition for Oc1ccc(-c2cc(-c3ccco3)c3c(n2)-c2ccccc2C3)cc1
output: 2.7%

input: Give UniProtKB P11387 inhibition for Oc1ccc(-c2cc(-c3ccoc3)c3c(n2)-c2ccccc2C3)cc1
output: 0%

input: Give UniProtKB P11387 inhibition for Oc1cccc(-c2cc(-c3cccnc3)c3c(n2)-c2ccccc2C3)c1
output: 1.7%

input: Give UniProtKB P11387 inhibition for Oc1cccc(-c2cc(-c3ccoc3)c3c(n2)-c2ccccc2C3)c1
output: 0%

input: Give UniProtKB P11387 inhibition for Oc1cccc(-c2cc(-c3ccncc3)c3c(n2)-c2ccccc2C3)c1
output: 1.5%

input: Give UniProtKB P11387 inhibition for Oc1ccccc1-c1cc(-c2ccccn2)c2c(n1)-c1ccccc1C2
output: 4.9%

input: Give UniProtKB P11387 inhibition for Oc1ccccc1-c1cc(-c2cccnc2)c2c(n1)-c1ccccc1C2
output: 3.8%

input: Give UniProtKB P11387 inhibition for Oc1ccc(-c2cc(-c3cccnc3)c3c(n2)-c2ccccc2C3)cc1
output: 2.4%

input: Give UniProtKB P11387 inhibition for Oc1cccc(-c2cc(-c3cccs3)c3c(n2)-c2ccccc2C3)c1
output: 0%

Provenance of the data: ChEMBL document CHEMBL3596197
